Data credit: paper PMC10873254

experiment: in vivo; parameters: species or system BALB/c nu/nu female mice; conditions: female, BALB/c nu/nu, mouse, iv, 40 pmol, total radioactivity, Tumor-to-kidneys ratio
experimental.readout: tissue to tissue ratio at 24 h

Which tissue to tissue ratio at 24 h reading was recorded for the compound CCNC(=O)[C@H](CC(C)C)NC(=O)[C@H](Cc1c[nH]cn1)NC(=O)CN(C)C(=O)[C@@H](NC(=O)[C@H](C)NC(=O)[C@H](Cc1c[nH]c2ccccc12)NC(=O)[C@H](CCC(N)=O)NC(=O)[C@@H](Cc1ccccc1)NC(=O)COCC(=O)Nc1ccc(CNC(=O)CCC(C(=O)O)N2CCN(CC(=O)O)CCN(CC(=O)O)CCN(CC(=O)O)CC2)cc1)C(C)C (stereo partly shown) [[^111In]In-AU-SAR-M1, metal not drawn] ?
2.7

---

assay: in vivo; set-up: species or system BALB/c nu/nu female mice; settings: female, BALB/c nu/nu, mouse, iv, 40 pmol, total radioactivity, Kidneys uptake
experimental.readout: tissue uptake at 4 h (%ID/g)
# output: bare number, implied unit %ID/g

Solved entries (count: 2):
compound: CCNC(=O)[C@H](CC(C)C)NC(=O)[C@H](Cc1c[nH]cn1)NC(=O)CN(C)C(=O)[C@@H](NC(=O)[C@H](C)NC(=O)[C@H](Cc1c[nH]c2ccccc12)NC(=O)[C@H](CCC(N)=O)NC(=O)[C@@H](Cc1ccccc1)NC(=O)COCC(=O)Nc1ccc(CNC(=O)CCC(C(=O)O)N2CCN(CC(=O)O)CCN(CC(=O)O)CCN(CC(=O)O)CC2)cc1)C(C)C (stereo partly drawn) [[^111In]In-AU-SAR-M1, metal not drawn]
value.unit: %ID/g
tissue uptake at 4 h: 3.1
//
compound: CCNC(=O)[C@H](CC(C)C)NC(=O)[C@H](Cc1c[nH]cn1)NC(=O)CN(C)C(=O)[C@@H](NC(=O)[C@H](C)NC(=O)[C@H](Cc1c[nH]c2ccccc12)NC(=O)[C@H](CCC(N)=O)NC(=O)[C@@H](Cc1ccccc1)NC(=O)COCC(=O)Nc1ccc(CNC(=O)[C@H](CCCNC(=N)N)NC(=O)CCC(C(=O)O)N2CCN(CC(=O)O)CCN(CC(=O)O)CCN(CC(=O)O)CC2)cc1)C(C)C (stereo partly drawn) [[^111In]In-AU-SAR-M2, [^111In]In-[DOTAGA-Arg]AU-SAR-M1, metal not drawn]
value.unit: %ID/g
tissue uptake at 4 h: 3.4

Can you look up the measured tissue uptake at 4 h of CCNC(=O)[C@H](CC(C)C)NC(=O)[C@H](Cc1c[nH]cn1)NC(=O)CN(C)C(=O)[C@@H](NC(=O)[C@H](C)NC(=O)[C@H](Cc1c[nH]c2ccccc12)NC(=O)[C@H](CCC(N)=O)NC(=O)[C@@H](Cc1ccccc1)NC(=O)COCC(=O)Nc1ccc(CNC(=O)[C@@H](CCCNC(=N)N)NC(=O)CCC(C(=O)O)N2CCN(CC(=O)O)CCN(CC(=O)O)CCN(CC(=O)O)CC2)cc1)C(C)C (stereo partly drawn) [[^111In]In-AU-SAR-M3, [^111In]In-[DOTAGA-DArg]AU-SAR-M1, metal not drawn] for me?
5

---

test: in vivo; design: species or system BALB/c nu/nu female mice; settings: female, BALB/c nu/nu, mouse, iv, 40 pmol, total radioactivity, Small intestines uptake
experimental.readout: tissue uptake at 24 h (%ID/g)
Provide only the numeric value, understood in %ID/g.

// lookup tissue uptake at 24 h for CCNC(=O)[C@H](CC(C)C)NC(=O)[C@H](Cc1c[nH]cn1)NC(=O)CN(C)C(=O)[C@@H](NC(=O)[C@H](C)NC(=O)[C@H](Cc1c[nH]c2ccccc12)NC(=O)[C@H](CCC(N)=O)NC(=O)[C@@H](Cc1ccccc1)NC(=O)COCC(=O)Nc1ccc(CNC(=O)CCC(C(=O)O)N2CCN(CC(=O)O)CCN(CC(=O)O)CCN(CC(=O)O)CC2)cc1)C(C)C (stereo partly shown) [[^111In]In-AU-SAR-M1, metal not drawn]
0.07

---

experiment: in vivo; set-up: species or system BALB/c nu/nu female mice; settings: female, BALB/c nu/nu, mouse, iv, 40 pmol, total radioactivity, Pancreas uptake
experimental.readout: tissue uptake at 24 h (%ID/g)
// units = %ID/g; emit number, no label

Fill in: tissue uptake at 24 h of CCNC(=O)[C@H](CC(C)C)NC(=O)[C@H](Cc1c[nH]cn1)NC(=O)CN(C)C(=O)[C@@H](NC(=O)[C@H](C)NC(=O)[C@H](Cc1c[nH]c2ccccc12)NC(=O)[C@H](CCC(N)=O)NC(=O)[C@@H](Cc1ccccc1)NC(=O)COCC(=O)Nc1ccc(CNC(=O)CCC(C(=O)O)N2CCN(CC(=O)O)CCN(CC(=O)O)CCN(CC(=O)O)CC2)cc1)C(C)C (stereo partly shown) [[^111In]In-AU-SAR-M1, metal not drawn] is ___
0.12

---

As shown below, each of these molecules has a reported tissue uptake at 4 h value.
assay: in vivo; parameters: species or system BALB/c nu/nu female mice; conditions: female, BALB/c nu/nu, mouse, iv, 40 pmol, total radioactivity, Liver uptake

Below: 2 molecules and their reported tissue uptake at 4 h.
molecule: CCNC(=O)[C@H](CC(C)C)NC(=O)[C@H](Cc1c[nH]cn1)NC(=O)CN(C)C(=O)[C@@H](NC(=O)[C@H](C)NC(=O)[C@H](Cc1c[nH]c2ccccc12)NC(=O)[C@H](CCC(N)=O)NC(=O)[C@@H](Cc1ccccc1)NC(=O)COCC(=O)Nc1ccc(CNC(=O)CCC(C(=O)O)N2CCN(CC(=O)O)CCN(CC(=O)O)CCN(CC(=O)O)CC2)cc1)C(C)C (stereo partly drawn) [[^111In]In-AU-SAR-M1, metal not drawn]
experimental.readout: tissue uptake at 4 h
result: 0.2 %ID/g
--
molecule: CCNC(=O)[C@H](CC(C)C)NC(=O)[C@H](Cc1c[nH]cn1)NC(=O)CN(C)C(=O)[C@@H](NC(=O)[C@H](C)NC(=O)[C@H](Cc1c[nH]c2ccccc12)NC(=O)[C@H](CCC(N)=O)NC(=O)[C@@H](Cc1ccccc1)NC(=O)COCC(=O)Nc1ccc(CNC(=O)[C@H](CCCNC(=N)N)NC(=O)CCC(C(=O)O)N2CCN(CC(=O)O)CCN(CC(=O)O)CCN(CC(=O)O)CC2)cc1)C(C)C (stereo partly drawn) [[^111In]In-AU-SAR-M2, [^111In]In-[DOTAGA-Arg]AU-SAR-M1, metal not drawn]
experimental.readout: tissue uptake at 4 h
result: 0.3 %ID/g

Pending molecule:
I'd like to know its tissue uptake at 4 h. The molecule in question is CCNC(=O)[C@H](CC(C)C)NC(=O)[C@H](Cc1c[nH]cn1)NC(=O)CN(C)C(=O)[C@@H](NC(=O)[C@H](C)NC(=O)[C@H](Cc1c[nH]c2ccccc12)NC(=O)[C@H](CCC(N)=O)NC(=O)[C@@H](Cc1ccccc1)NC(=O)COCC(=O)Nc1ccc(CNC(=O)[C@@H](CCCNC(=N)N)NC(=O)CCC(C(=O)O)N2CCN(CC(=O)O)CCN(CC(=O)O)CCN(CC(=O)O)CC2)cc1)C(C)C (stereo partly drawn) [[^111In]In-AU-SAR-M3, [^111In]In-[DOTAGA-DArg]AU-SAR-M1, metal not drawn]
0.25 %ID/g

---

assay: in vivo; design: species or system BALB/c nu/nu female mice; conditions: female, BALB/c nu/nu, mouse, iv, 40 pmol, total radioactivity, Tumor-to-muscle ratio
experimental.readout: tissue to tissue ratio at 4 h
Write no unit; give the number alone.

# query: tissue to tissue ratio at 4 h of entry CCNC(=O)[C@H](CC(C)C)NC(=O)[C@H](Cc1c[nH]cn1)NC(=O)CN(C)C(=O)[C@@H](NC(=O)[C@H](C)NC(=O)[C@H](Cc1c[nH]c2ccccc12)NC(=O)[C@H](CCC(N)=O)NC(=O)[C@@H](Cc1ccccc1)NC(=O)COCC(=O)Nc1ccc(CNC(=O)CCC(C(=O)O)N2CCN(CC(=O)O)CCN(CC(=O)O)CCN(CC(=O)O)CC2)cc1)C(C)C (stereo partly drawn) [[^111In]In-AU-SAR-M1, metal not drawn]
167

Sample CCNC(=O)[C@H](CC(C)C)NC(=O)[C@H](Cc1c[nH]cn1)NC(=O)CN(C)C(=O)[C@@H](NC(=O)[C@H](C)NC(=O)[C@H](Cc1c[nH]c2ccccc12)NC(=O)[C@H](CCC(N)=O)NC(=O)[C@@H](Cc1ccccc1)NC(=O)COCC(=O)Nc1ccc(CNC(=O)[C@H](CCCNC(=N)N)NC(=O)CCC(C(=O)O)N2CCN(CC(=O)O)CCN(CC(=O)O)CCN(CC(=O)O)CC2)cc1)C(C)C (stereo partly drawn) [[^111In]In-AU-SAR-M2, [^111In]In-[DOTAGA-Arg]AU-SAR-M1, metal not drawn] — what was its tissue to tissue ratio at 4 h?
161

Query: tissue to tissue ratio at 4 h; subject: CCNC(=O)[C@H](CC(C)C)NC(=O)[C@H](Cc1c[nH]cn1)NC(=O)CN(C)C(=O)[C@@H](NC(=O)[C@H](C)NC(=O)[C@H](Cc1c[nH]c2ccccc12)NC(=O)[C@H](CCC(N)=O)NC(=O)[C@@H](Cc1ccccc1)NC(=O)COCC(=O)Nc1ccc(CNC(=O)[C@@H](CCCNC(=N)N)NC(=O)CCC(C(=O)O)N2CCN(CC(=O)O)CCN(CC(=O)O)CCN(CC(=O)O)CC2)cc1)C(C)C (stereo partly drawn) [[^111In]In-AU-SAR-M3, [^111In]In-[DOTAGA-DArg]AU-SAR-M1, metal not drawn]
107
